- target: T1, human GIP receptor (human, UniProt P48546 22-466)
- T1 sequence (looked up): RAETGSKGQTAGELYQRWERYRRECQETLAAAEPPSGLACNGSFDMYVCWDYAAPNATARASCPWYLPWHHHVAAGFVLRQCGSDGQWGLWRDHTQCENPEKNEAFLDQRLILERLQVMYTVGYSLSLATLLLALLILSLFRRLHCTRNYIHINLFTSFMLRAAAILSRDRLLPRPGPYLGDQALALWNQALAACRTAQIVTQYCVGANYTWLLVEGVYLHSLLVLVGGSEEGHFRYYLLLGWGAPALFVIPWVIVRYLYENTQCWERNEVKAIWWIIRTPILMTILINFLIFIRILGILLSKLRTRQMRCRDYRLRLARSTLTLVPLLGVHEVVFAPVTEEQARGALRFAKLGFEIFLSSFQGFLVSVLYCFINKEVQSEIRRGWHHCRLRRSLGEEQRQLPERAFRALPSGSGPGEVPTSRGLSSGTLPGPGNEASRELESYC
- protocol details: cell-based or functional assay
Ends that are not written are not given here. * marks the point of attachment. Palmitoyl = CCCCCCCCCCCCCCCC(=O)*; Myristoyl = CCCCCCCCCCCCCC(=O)*
property name: cAMP agonism, EC50 (log) (log M)

>>> experimental_result("EGTKISDYSIAMDKIHQQDFVNWLLAQK (C16-diacid (1,16-hexadecanedioic acid) on Lys 6 (GIP numbering); C-terminal amide) [AT297 [hGIP(3-30)NH2[F6K]-C16diacid/6]]")
-7
>>> experimental_result("EGTFISDYSIAMDK(Palmitoyl)IHQQDFVNWLLAQK-NH2 [AT105 [hGIP(3-30)NH2-C16/16]]")
-5.9
>>> experimental_result("Myristoyl-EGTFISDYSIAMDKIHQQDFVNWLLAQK-NH2 [AT110 [hGIP(3-30)NH2-C14/3]]")
-8.4
